These entries and their values trace back to patent US20190282704A1.

# Assay System: canine IL-31 (Canine_IL31) (canine)
# Sequence (chain, as listed by the source limits assumed, form in doubt): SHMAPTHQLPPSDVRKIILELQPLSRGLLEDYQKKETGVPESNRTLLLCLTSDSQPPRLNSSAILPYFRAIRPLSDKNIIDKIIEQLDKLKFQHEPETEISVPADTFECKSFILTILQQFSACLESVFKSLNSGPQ
# Measurement Notes: SPR (Biacore), immobilised IL-31, 1:1 fit
Outcome Measure: kon (M⁻¹ s⁻¹)
# number only, unit M⁻¹ s⁻¹ dropped from output

Binder | U | kon
Feline 15H05 1.1 FW2_3 (antibody, V domains shown) VH: QVLLVQSGAEVRTPGASVKIFCKASGYSFTSYTIHWLRQAPAQGLEWMGNINPTSGYTENNQRFKDRLTLTADTSTNTAYMELSSLRSADTAMYYCARWGFKYDGEWSFDVWGAGTTVTVSS VL: EIQMTQSPSSLSASPGDRVTITCRASQGISIWLSWYQQKPGNIPKVLINKASNLHIGVPPRFSGSGSGTHFTLTITSLQPEDIATYYCLQSQTYPLTFGGGTKLEIK | M⁻¹ s⁻¹ | 9050
Feline 15H05 1.3 (antibody, V domains shown) VH: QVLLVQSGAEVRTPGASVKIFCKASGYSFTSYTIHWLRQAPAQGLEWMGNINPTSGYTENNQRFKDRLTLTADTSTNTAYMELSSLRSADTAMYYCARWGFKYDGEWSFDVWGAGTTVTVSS VL: EVVLTQSSAFLSRTLKEKATITCRASQGISIWLSWYQQKPNQAPKLLVKKASNLHIGAPSRFSGSGSGTDFTLTISSPEPEDAATYYCLQSQTYPLTFGGGTKLGDQ | M⁻¹ s⁻¹ | 29700

We now examine a further binder.
Query (binder): Feline 15H05 1.2 (antibody, V domains shown) VH: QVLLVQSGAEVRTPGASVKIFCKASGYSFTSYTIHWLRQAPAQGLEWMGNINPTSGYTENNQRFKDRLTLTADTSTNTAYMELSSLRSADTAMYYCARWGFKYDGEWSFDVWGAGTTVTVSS VL: EITMTQSPGSLAGSPGQQVTMNCRASQGISIWLSWYQQKPGQHPKLLIYKASNLHIGVPDRFSGSGSGTDFTLTISNLQAEDVASYYCLQSQTYPLTFGGGTKLEIK ; field requested: kon
33000
